- target-desc: T1, His-tagged FtsZ (M. tuberculosis H37Rv, UniProt P9WN95 1-379)
- T1 sequence: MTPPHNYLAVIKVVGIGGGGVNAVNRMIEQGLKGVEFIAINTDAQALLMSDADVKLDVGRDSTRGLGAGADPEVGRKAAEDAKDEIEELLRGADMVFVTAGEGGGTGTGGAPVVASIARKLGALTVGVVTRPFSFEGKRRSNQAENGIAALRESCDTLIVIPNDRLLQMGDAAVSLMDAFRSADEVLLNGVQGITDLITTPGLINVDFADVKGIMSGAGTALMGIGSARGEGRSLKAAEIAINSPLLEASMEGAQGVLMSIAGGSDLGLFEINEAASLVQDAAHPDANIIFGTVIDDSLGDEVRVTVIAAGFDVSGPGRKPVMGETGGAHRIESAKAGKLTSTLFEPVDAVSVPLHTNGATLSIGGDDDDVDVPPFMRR
- experiment-description: SPR
parameter: Kd (µM)
Field: numeric (µM). Do not append units.

Lookup: Record request: Kd value, item His-tagged SepFc (N-terminal truncated version of SepF, amino acids 115-203) (domain or fragment) EMTRPRFGSWLRNSTRGALAMDPRRMAMMFEDGHPLSKITTLRPKDYSEARTIGERFRDGSPVIMDLVSMDNADAKRLVDFAAGLAFAL
Found: 5.16
